This listing pairs compounds with measured IC50.
Biological target: recombinant GST-tagged MDM2 (Homo sapiens)
Sequence (Q00987 whole entry): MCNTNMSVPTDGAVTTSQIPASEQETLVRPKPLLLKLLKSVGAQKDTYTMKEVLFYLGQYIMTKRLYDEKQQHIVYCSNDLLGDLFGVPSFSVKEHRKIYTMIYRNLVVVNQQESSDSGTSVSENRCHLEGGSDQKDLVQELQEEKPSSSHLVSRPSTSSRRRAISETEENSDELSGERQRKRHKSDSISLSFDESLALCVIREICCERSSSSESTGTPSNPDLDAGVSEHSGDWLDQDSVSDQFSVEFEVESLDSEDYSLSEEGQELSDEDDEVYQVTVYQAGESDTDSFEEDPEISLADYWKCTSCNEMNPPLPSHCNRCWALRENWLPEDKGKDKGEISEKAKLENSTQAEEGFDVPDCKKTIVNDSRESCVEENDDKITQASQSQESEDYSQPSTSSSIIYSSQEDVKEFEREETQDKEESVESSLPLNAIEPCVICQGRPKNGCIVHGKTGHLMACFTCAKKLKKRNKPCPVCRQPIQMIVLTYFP
Assay: HTRF assay of interaction between p53 peptide and GST-tagged MDM2
Settings: inhibition of GST-MDM2 (160 ng/ml) binding to biotinylated p53-peptide
Counter-ions that a name gives are not always drawn.
Unit nM implied. Number only.

Example results:
CCOc1cc(Cl)c(S(C)(=O)=O)cc1C1=N[C@@](C)(c2ccc(Cl)cc2)[C@@](C)(c2ccc(Cl)cc2)N1C(=O)N1CCC(O)CC1    8.4
CCOc1cc(Cl)c(S(=O)(=O)NC(C)(C)C)cc1C1=N[C@@](C)(c2ccc(Cl)cc2)[C@@](C)(c2ccc(Cl)cc2)N1C(=O)N1CCN(CCC(O)CO)CC1 (stereo partly shown)    12.9
CCOc1cc(Cl)c(S(C)(=O)=O)cc1C1=N[C@@](C)(c2ccc(Cl)cc2)[C@@](C)(c2ccc(Cl)cc2)N1C(=O)N1CCC(CCS(C)(=O)=O)CC1    6.1
CC(C)Oc1cc(Cl)c(S(C)(=O)=O)cc1C1=N[C@@](C)(c2ccc(Cl)cc2)[C@@](C)(c2ccc(Cl)cc2)N1C(=O)N1CCC(CC(N)=O)CC1    6.9
CCOc1cc(Cl)c(S(C)(=O)=O)cc1C1=N[C@@](C)(c2ccc(Cl)cc2)[C@@](C)(c2ccc(Cl)cc2)N1C(=O)N1CCC(NC(=O)N2CCCC2)CC1    12.7
CC(C)Oc1cc(Cl)c(S(=O)(=O)N2C[C@H]3CC[C@@H](C2)O3)cc1C1=N[C@@](C)(c2ccc(Cl)cc2)[C@@](C)(c2ccc(Cl)cc2)N1C(=O)N1CCC(CC(N)=O)CC1    9.1

Entry CCOc1cc(Cl)c(S(C)(=O)=O)cc1C1=N[C@@](C)(c2ccc(Cl)cc2)[C@@](C)(c2ccc(Cl)cc2)N1C(=O)N1CCN(CC(=O)O)CC1 [Example 35, hydrochloride] has what IC50?
6.7
